tested on: NCI-H322M lung; assay: NCI-60 one-dose screen, 48 h (100 = growth as untreated, 0 = no growth, -100 = all killed); conditions: 10 µM unless noted
This is part of a sample that, as a whole, favours compounds with a hit. Of some 83,000 tested, about 20% had one in any assay.
Class definitions on growth: bin 1 = under 70%, bin 2 = from 70% up to 90%, bin 3 = 90% and over

>>> df
                                   compound    cat
0  CCOC(=O)C1=C(C)n2nc(CC#N)c(C#N)c2NC1c1ccc(CC)cc1 (stereo unspecified)  bin 2

Input: Which category fits this record: `Cc1ccn2c3c(c(C(=O)O)c2c1)C(=O)c1ccccc1C3=O`
Output: bin 1

Input: Which category fits this record: `Cn1nc(C(F)(F)F)c(-c2cc(C(F)(F)F)cc(C(F)(F)F)c2)c1-c1ccc(OCc2ccc(Cl)cc2)cc1O`
Output: bin 1

Input: Which category fits this record: `O=C(CCl)N1CCCc2ccccc21`
Output: bin 3

Input: Which category fits this record: `O=C(CCc1nnco1)c1nc2ccc([N+](=O)[O-])cc2[nH]1`
Output: bin 3

Input: Which category fits this record: CCCS(=O)(=O)Nc1ccc(F)c(C(=O)c2c[nH]c3ncc(-c4ccc(OCCCC5CCCCN5)nc4)cc23)c1F (stereo unspecified)
Output: bin 3

Input: Which category fits this record: `COc1cc2nc3c(=O)n(CCN(C)C)cnn3c(=O)c2cc1OC`
Output: bin 3

Input: Which category fits this record: Nc1ccc(C2=NN(C(=O)c3cc(-c4ccc(Cl)cc4)nc4ccccc34)C(c3ccccc3)C2)cc1 (stereo unspecified)
Output: bin 1

Input: Which category fits this record: `CC(=O)Nc1ccc2c(c1)Cc1cc(F)ccc1-2`
Output: bin 2

Input: Which category fits this record: CC1CCCN(CCCCCOc2ccc3oc4ccc(Cl)cc4c(=O)c3c2)C1 (stereo unspecified)
Output: bin 2

###

test system: EKVX NSCLC; assay: NCI-60 one-dose screen, 48 h (100 = growth as untreated, 0 = no growth, -100 = all killed); details: 10 µM unless noted
Compounds without any hit were thinned out: in the full panel of roughly 83,000, 20% have a hit.
# if measured growth < 90%: true  # else: false

Answered examples (5):
>>> print(df.to_string())
                                   compound  experimental_system    cat
0  O=c1nc(-c2ccccc2)c2cc(-c3ccc(N4CCCC4)nc3)ccc2[nH]1           EKVX NSCLC   true
1                    O=C(CCl)N1CCCc2ccccc21           EKVX NSCLC  false
2  COc1cc(/C=C/C(=O)c2cccs2)ccc1OCc1ccc(Cl)nc1           EKVX NSCLC  false
3  C#C[C@@]1(O)[C@@H](CO)O[C@@H](n2cc(Br)c3c(N)ncnc32)[C@@H]1O           EKVX NSCLC   true
4  O=C(CCCC(=O)Nc1ccc(-n2nnc3cc(Cl)c(Cl)cc32)cc1)Nc1ccc(-n2nnc3cc(Cl)c(Cl)cc32)cc1           EKVX NSCLC   true

Input: Dear reviewer, please state whether `COc1cc(NC(=O)Nc2cnc(Nc3ccc(N4CCOCC4)cc3)nc2Oc2ccc(F)cc2)cc(OC)c1` has growth strictly beneath 90%.
Output: false

Input: Dear reviewer, please state whether `Nc1c(C(=O)Nc2cccc3ccccc23)sc2nc3c(cc12)COCC3` has growth strictly beneath 90%.
Output: true

Input: Dear reviewer, please state whether `C#CCN1C(=O)c2ccccc2N(CC#C)C12CCN(Cc1cn(CC(=O)Nc3ccccc3C(N)=O)nn1)CC2` has growth strictly beneath 90%.
Output: true

Input: Dear reviewer, please state whether CCCCCCC/C=C/[C@H]1O[C@]23C(=O)C[C@@]4(C[C@@H](OC5OC(CO)C(O)C(O)C5O)C[C@@H]4[C@H]2C=C1C)OC3=O (stereo partly drawn) has growth strictly beneath 90%.
Output: true

Input: Dear reviewer, please state whether `COc1cc2c(cc1OCCCOc1cc3c(cc1OC)C(=O)N1CC(F)(F)C[C@H]1C=N3)N=C[C@@H]1CC(F)(F)CN1C2=O` has growth strictly beneath 90%.
Output: true
